experiment_description: Evaluation of compound pharmacokinetics in SD rats (intravenous injection and oral administration)
Type: in vivo
experimental_parameters: male, Sprague Dawley, rat, plasma, oral, 2 mg/kg, 2 mpk, read-out: Fraction of bioavailability: F
quantity_name: bioavailability (%)

CC(C)Oc1ccc(-c2nc(-c3cccc4c3CC3CC(=O)N(CCO)C43)no2)cc1OC(F)F (stereo not drawn) [Example 40]; 82.3
CC(C)Oc1ccc(-c2nc(-c3cccc4c3C[C@@H]3CC(=O)N([C@H](C)CO)C43)no2)cc1C#N (stereo partly drawn) [Example 56]; 66.7
CC(C)Oc1ccc(-c2nc(-c3cccc4c3CC3CC(=O)N(CCO)C43)no2)cc1Cl (stereo not drawn) [Example 26]; 88.2

(P) CC(C)Oc1ccc(-c2nc(-c3cccc4c3CC3CC(=O)N(CCO)C43)no2)cc1C(F)F (stereo not drawn) [Example 27]
(Q) CC(C)Oc1ccc(-c2nc(-c3cccc4c3CC3CC(=O)N(CC(O)CO)C43)no2)cc1C#N (stereo not drawn) [Example 14]
Select one. Lower bioavailability: P or Q Reply with the label of the item you choose.
Q
(Q: 59%, P: 92.6%)

###

experiment_description: Evaluation of compound pharmacokinetics in SD rats (intravenous injection and oral administration)
Format: in vivo
experimental_parameters: male, Sprague Dawley, rat, plasma, 2 mg/kg, 2 mpk, read-out: Drug concentration integral: AUC
quantity_name: AUC (µM·h)

CC(C)Oc1ccc(-c2nc(-c3cccc4c3C[C@@H]3CC(=O)N([C@H](C)CO)C43)no2)cc1C#N (stereo partly drawn); 3.32
CC(C)Oc1ccc(-c2nc(-c3cccc4c3CC3CC(=O)N(CC(O)CO)C43)no2)cc1C#N (stereo not drawn); 5.76
CC(C)Oc1ccc(-c2nc(-c3cccc4c3CC3CC(=O)N(CCO)C43)no2)cc1C(F)F (stereo not drawn); 4.78

(1) CC(C)Oc1ccc(-c2nc(-c3cccc4c3CC3CC(=O)N(CCO)C43)no2)cc1Cl (stereo not drawn)
(2) CC(C)Oc1ccc(-c2nc(-c3cccc4c3C[C@@H]3OC(=O)N(CCO)[C@H]43)no2)cc1C#N (relative stereo)
(3) CC(C)Oc1ccc(-c2nc(-c3cccc4c3CC3CC(=O)N(CCO)C43)no2)cc1OC(F)F (stereo not drawn)
Sort (3 molecules) by AUC: min first. Output the labels ranked as instructed.
3, 1, 2

###

experiment_description: Evaluation of compound pharmacokinetics in SD rats (intravenous injection and oral administration)
Assay type: in vivo
experimental_parameters: male, Sprague Dawley, rat, plasma, 2 mg/kg, 2 mpk, read-out: Half-life period: T1/2 (converted)
quantity_name: half-life (h)

CC(C)Oc1ccc(-c2nc(-c3cccc4c3CC3CC(=O)N(CCO)C43)no2)cc1C(F)F (stereo not drawn); 21.2

(1) CC(C)Oc1ccc(-c2nc(-c3cccc4c3CC3CC(=O)N(CCO)C43)no2)cc1OC(F)F (stereo not drawn)
(2) CC(C)Oc1ccc(-c2nc(-c3cccc4c3CC3CC(=O)N(CCO)C43)no2)cc1Cl (stereo not drawn)
(3) CC(C)Oc1ccc(-c2nc(-c3cccc4c3C[C@@H]3CC(=O)N([C@H](C)CO)C43)no2)cc1C#N (stereo partly drawn)
(4) CC(C)Oc1ccc(-c2nc(-c3cccc4c3CC3CC(=O)N(CC(O)CO)C43)no2)cc1C#N (stereo not drawn)
(5) CC(C)Oc1ccc(-c2nc(-c3cccc4c3C[C@@H]3OC(=O)N(CCO)[C@H]43)no2)cc1C#N (relative stereo)
Arrange these molecules by their half-life, starting with the largest number. Output the labels ranked as instructed.
2, 1, 5, 4, 3

###

We begin with a simple list: items and their reported pEC50.
target_under_test: S1P1 receptor (Homo sapiens)
Sequence (P21453 whole entry): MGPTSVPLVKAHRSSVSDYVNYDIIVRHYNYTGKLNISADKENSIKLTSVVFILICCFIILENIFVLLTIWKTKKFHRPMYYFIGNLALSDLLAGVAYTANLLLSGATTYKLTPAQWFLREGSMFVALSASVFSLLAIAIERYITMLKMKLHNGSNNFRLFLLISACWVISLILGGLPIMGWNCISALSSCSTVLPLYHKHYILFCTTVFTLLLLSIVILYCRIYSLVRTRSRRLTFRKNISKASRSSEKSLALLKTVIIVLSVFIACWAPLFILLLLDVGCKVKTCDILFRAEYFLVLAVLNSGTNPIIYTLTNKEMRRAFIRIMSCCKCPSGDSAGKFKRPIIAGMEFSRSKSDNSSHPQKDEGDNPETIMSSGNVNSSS
experiment_description: S1P1 receptor agonistic activity (PathHunter cell strain, chemiluminescent signal detection)
experimental_parameters: PathHunter cells, agonist mode, 37° C. 90-180 minutes
pEC50: −log10 of the molar value.

Some entries whose results are on file:
CC(C)Oc1ccc(-c2nc(-c3cccc4c3C[C@@H]3OC(=O)N(CCO)[C@H]43)no2)cc1C#N (relative stereo); > 8.00
CC(C)Oc1ccc(-c2nc(-c3cccc4c3C[C@@H]3CC(=O)N([C@H](C)CO)C43)no2)cc1C#N (stereo partly shown); > 8.00
O=C1CC2Cc3c(-c4noc(-c5cn(Cc6ccccc6)nn5)n4)cccc3C2N1CCO (stereo not shown); < 7.00
CC(C)Oc1ccc(-c2nc(-c3cccc4c3CC3CC(=O)N(CC(O)CO)C43)no2)cc1C#N (stereo not shown); > 8.00

# lookup: pEC50 of CC(C)Oc1ccc(-c2nnc(-c3cccc4c3CC3CC(=O)N(CCO)C43)s2)cc1C#N (stereo not shown)
> 8.00

# lookup: pEC50 of O=C1CC2Cc3c(-c4noc(-c5ccc(OC(F)(F)F)cc5)n4)cccc3C2N1CCO (stereo not shown)
< 7.00

# lookup: pEC50 of CC(C)Oc1ccc(-c2nc(-c3cccc4c3CC3CC(=O)N(CCC(=O)O)C43)no2)cc1C#N (stereo not shown)
> 8.00

# lookup: pEC50 of CC(C)Oc1ccc(-c2nc(-c3cccc4c3CC3CC(=O)N(CCO)C43)no2)cc1Cl (stereo not shown)
> 8.00

# lookup: pEC50 of CCCc1nnsc1-c1nc(-c2cccc3c2CC2CC(=O)N(CCO)C32)no1 (stereo not shown)
< 7.00

# lookup: pEC50 of CC(C)Oc1ccc(-c2nc(-c3cccc4c3C[C@@H]3CCN(C5CC(C(=O)O)C5)C43)no2)cc1C#N (stereo partly shown)
> 8.00

# lookup: pEC50 of CC(C)Oc1ccc(-c2nc(-c3cccc4c3CC3CC(=O)N(CCO)C43)no2)c(C#N)c1 (stereo not shown)
< 7.00

# lookup: pEC50 of CC(C)Oc1ccc(-c2nc(-c3cccc4c3CC3CCN(CC(=O)O)C43)no2)cc1C#N (stereo not shown)
> 8.00

# lookup: pEC50 of CC(C)Oc1ccc(-c2ncc(-c3cccc4c3CC3CC(=O)N(CCO)C43)s2)cc1C#N (stereo not shown)
> 8.00

# lookup: pEC50 of CC(C)Oc1ccc(-c2nc(-c3cccc4c3CC3CC(=O)N(CCO)C43)no2)cc1C(F)F (stereo not shown)
> 8.00

# lookup: pEC50 of O=C1CC2Cc3c(-c4noc(-c5csc(-c6ccccc6)n5)n4)cccc3C2N1CCO (stereo not shown)
< 7.00

# lookup: pEC50 of CC(C)Oc1ccc(-c2nc(-c3cccc4c3CC3CC(=O)N(CC(=O)N(C)C)C43)no2)cc1C#N (stereo not shown)
7.00 to 8.00

# lookup: pEC50 of CC(C)Oc1ccc(-c2nc(-c3cccc4c3CCC3CC(=O)N(CCO)C43)no2)cc1C#N (stereo not shown)
> 8.00

# lookup: pEC50 of CC(C)Oc1ccc(-c2ccc(-c3cccc4c3CC3CC(=O)N(CCO)C43)s2)cc1C#N (stereo not shown)
> 8.00

###

We begin with a simple list: items and their reported pEC50.
target_under_test: S1P1 receptor (Homo sapiens)
experiment_description: S1P1 receptor agonistic activity (PathHunter cell strain, chemiluminescent signal detection)
experimental_parameters: PathHunter cells, agonist mode, 37° C. 90-180 minutes
pEC50: −log10 of the molar value.

Some entries whose results are on file:
O=C1CC2Cc3c(-c4noc(-c5ccc(OC(F)F)cc5)n4)cccc3C2N1CCO (stereo not shown); < 7.00
O=C1CC2Cc3c(-c4noc(-c5ccc(OC6CC6)cc5)n4)cccc3C2N1CCO (stereo not shown); < 7.00
CC(C)Oc1ccc(-c2nc(-c3cccc4c3C[C@@H]3CC(=O)N([C@@H](CO)C(C)C)C43)no2)cc1C#N (stereo partly shown); 7.00 to 8.00

Which pEC50 is reported with S1P1 receptor (Homo sapiens) for this entry: CC(C)Oc1ccc(-c2nsc(-c3cccc4c3CC3CC(=O)N(CCO)C43)n2)cc1C#N (stereo not shown) ?
> 8.00

Which pEC50 is reported with S1P1 receptor (Homo sapiens) for this entry: CC(C)Oc1ccc(-c2nc(-c3cccc4c3CC3CC(=O)N(CCO)C43)no2)cc1 (stereo not shown) ?
7.00 to 8.00

Which pEC50 is reported with S1P1 receptor (Homo sapiens) for this entry: CC(C)Oc1ccccc1-c1nc(-c2cccc3c2CC2CC(=O)N(CCO)C32)no1 (stereo not shown) ?
< 7.00

Which pEC50 is reported with S1P1 receptor (Homo sapiens) for this entry: O=C1CC2Cc3c(-c4noc(-c5cc(-c6nccs6)on5)n4)cccc3C2N1CCO (stereo not shown) ?
< 7.00

Which pEC50 is reported with S1P1 receptor (Homo sapiens) for this entry: CC(C)Oc1ccc(-c2nc(-c3cccc4c3CC3CCC(=O)N(CCO)C43)no2)cc1C#N (stereo not shown) ?
> 8.00

Which pEC50 is reported with S1P1 receptor (Homo sapiens) for this entry: CC(C)Oc1ccc(-c2nc(-c3cccc4c3CC3CC(=O)N(CCO)[C@H]43)n[nH]2)cc1C#N (stereo partly shown) ?
7.00 to 8.00

Which pEC50 is reported with S1P1 receptor (Homo sapiens) for this entry: O=C1CC2Cc3c(-c4noc(-c5cn6cccnc6n5)n4)cccc3C2N1CCO (stereo not shown) ?
< 7.00

Which pEC50 is reported with S1P1 receptor (Homo sapiens) for this entry: CC(C)Oc1ccc(-c2nc(-c3cccc4c3CC3CC(=O)N(CCO)C43)no2)cc1S(C)(=O)=O (stereo not shown) ?
7.00 to 8.00
